ASSAY_OVERVIEW: Caco-2 cell permeability test
Format: in vitro ADME
STATED_CONDITIONS: human; Caco-2, 10 µM compound, 120 min
QUANTITY_NAME: Papp A→B at 2 h (×10⁻⁶ cm/s)
Answers are plain numbers, in ×10⁻⁶ cm/s.

Recorded result, CN1CC[C@@H](Nc2cccc3c(CC(F)(F)F)c(C#CCNC(=O)c4cnn(C(C)(C)C)c4N)nn23)[C@@H](F)C1 [Compound 047] , Papp A→B at 2 h: 5.18

----------
Assign SC150 to each entry below.
SYSTEM_NAME: p53-Y220C mutant protein (Homo sapiens, UniProt P04637, Y220C)
Construct: The recombinant Y220C p53 DBD protein with his-tag
ASSAY_OVERVIEW: In vitro DNA binding activity assay (TR-FRET)
Format: biochemical
STATED_CONDITIONS: concentration required to increase the binding activity of protein to DNA by 50%
Answers are plain numbers, in nM.

CCn1ccc(C(=O)NCC#Cc2nn3c(N[C@@H]4CCN(C)C[C@@H]4F)cccc3c2CC(F)(F)F)c1 14
CN1CC[C@@H](Nc2cccc3c(CC(F)(F)F)c(C#CCNC(=O)c4cnn(-c5ccccc5)c4)nn23)[C@@H](F)C1 62
COc1nn(C(C)(C)C)cc1C(=O)NCC#Cc1nn2c(N[C@@H]3CCN(C)C[C@@H]3F)cccc2c1CC(F)(F)F 86
CN1CC[C@@H](Nc2cccc3c(CC(F)(F)F)c(C#CCNC(=O)c4cnn(C(C)(C)CF)c4)nn23)[C@@H](F)C1 21
CN1CC[C@@H](Nc2cccc3c(CC(F)(F)F)c(C#CCNC(=O)c4cnn(C(C)(C)C5CC5)c4N)nn23)[C@@H](F)C1 11

Recorded result, CN1CC[C@@H](Nc2cccc3c(CC(F)(F)F)c(C#CCNC(=O)c4cnn(C5COC5)c4)nn23)[C@@H](F)C1 , SC150: 7

----------
SYSTEM_NAME: PXR (Homo sapiens)
Construct: expressed in transfected cells; host or cells: DPX2 cells
Sequence (O75469 1-434): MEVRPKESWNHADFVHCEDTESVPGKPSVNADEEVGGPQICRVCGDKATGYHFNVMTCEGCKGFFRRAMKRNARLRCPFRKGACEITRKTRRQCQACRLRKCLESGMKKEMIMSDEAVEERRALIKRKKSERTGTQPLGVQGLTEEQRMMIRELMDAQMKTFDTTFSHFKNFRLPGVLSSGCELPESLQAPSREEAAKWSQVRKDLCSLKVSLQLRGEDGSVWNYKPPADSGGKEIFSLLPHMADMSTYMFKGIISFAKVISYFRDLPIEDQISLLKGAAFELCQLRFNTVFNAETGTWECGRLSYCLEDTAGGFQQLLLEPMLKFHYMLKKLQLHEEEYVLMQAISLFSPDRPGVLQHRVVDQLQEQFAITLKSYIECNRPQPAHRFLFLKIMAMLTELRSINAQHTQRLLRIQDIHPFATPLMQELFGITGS
ASSAY_OVERVIEW: PXR activity test in DPX2 cells (luciferase)
Assay type: cell-based
STATED_CONDITIONS: Concentration 1 (µM per method), DPX2 cells, 24 h
Assign Activation fold to each entry below.
Answers are plain numbers.

Would you please look over these solved cases?
COMPOUND	Activation fold
CCn1ncc(C(=O)NCC#Cc2nn3c(N[C@@H]4CCN(C)C[C@@H]4F)cccc3c2CC(F)(F)F)c1N	0.89
CNC(=O)c1ccc(NCC#Cc2cc3c(N[C@@H]4CCN(C)C[C@@H]4F)cccc3n2CC(F)(F)F)c(OC)c1 [Control compound, reference compound]	1.40
CN1CC[C@@H](Nc2cccc3c(CC(F)(F)F)c(C#CCNC(=O)c4cnn(C(C)(C)C)c4N)nn23)[C@@H](F)C1	1.12

API: the following record is the query input.
Recorded result, CN1CC[C@@H](Nc2cccc3c(CC(F)(F)F)c(C#CCNC(=O)c4cnn(C(C)(C)C)c4)nn23)[C@@H](F)C1 , Activation fold: 1.41

----------
Assign Papp B→A at 120 min, 10 µM to each entry below.
ASSAY_OVERVIEW: Caco-2 cell permeability test
Type: in vitro ADME
STATED_CONDITIONS: human, pH 7.4; Caco-2, 10 µM compound, 120 min
One number for each entry, in ×10⁻⁶ cm/s.

COMPOUND	Papp B→A at 120 min, 10 µM (×10⁻⁶ cm/s)
CN1CC[C@@H](Nc2cccc3c(CC(F)(F)F)c(C#CCNC(=O)c4cnn(C(C)(C)C)c4)nn23)[C@@H](F)C1	6.5

API: the following record is the query input.
Recorded result, CNC(=O)c1ccc(NCC#Cc2cc3c(N[C@@H]4CCN(C)C[C@@H]4F)cccc3n2CC(F)(F)F)c(OC)c1 [Control compound, reference compound] , Papp B→A at 120 min, 10 µM: 19.4

----------
ASSAY_OVERVIEW: Pharmacokinetic study in beagles
Assay type: in vivo
STATED_CONDITIONS: beagle, dog, plasma, 1 mg/kg, IV 1mpk
Protocol: On the day of administration, the test sample was prepared using a 5%DMSO+5%Solutol+90%Saline vehicle formula, and the drug solution was prepared and kept ready for use. The IV group received a dose of 1 mg/kg, and the PO group received a dose of 2 mg/kg. […] The animals were weighed before administration, and the dose was calculated based on the body weight. […] The concentration of the test sample in beagle plasma was detected using validated LC-MS/MS.
QUANTITY_NAME: clearance
Could you give the number and then its unit, please?

Recorded result, CNC(=O)c1ccc(NCC#Cc2cc3c(N[C@@H]4CCN(C)C[C@@H]4F)cccc3n2CC(F)(F)F)c(OC)c1 [Control compound, reference compound] , clearance: 20.4 mL/min/kg

----------
ASSAY_OVERVIEW: Caco-2 cell permeability test
Type: in vitro ADME
STATED_CONDITIONS: human; Caco-2, 10 µM compound, 120 min
QUANTITY_NAME: Papp B→A at 2 h (×10⁻⁶ cm/s)
Answers are plain numbers, in ×10⁻⁶ cm/s.

Recorded result, CN1CC[C@@H](Nc2cccc3c(CC(F)(F)F)c(C#CCNC(=O)c4cnn(C(C)(C)C)c4N)nn23)[C@@H](F)C1 [Compound 047] , Papp B→A at 2 h: 7.8

----------
SYSTEM_NAME: CYP 3A4 enzyme in human liver microsomes (Homo sapiens, UniProt P08684)
ASSAY_OVERVIEW: CYP3A4 inhibition experiment in human liver microsomes
STATED_CONDITIONS: CYP 3A4M IC50, human liver microsomes, midazolam as substrate
Assign pIC50 to each entry below.
Numbers only, as −log10 of the molar value.

COMPOUND	QUANTITY_NAME	OBSERVED
CNC(=O)c1ccc(NCC#Cc2cc3c(N[C@@H]4CCN(C)C[C@@H]4F)cccc3n2CC(F)(F)F)c(OC)c1 [Control compound, reference compound]	pIC50	5.03

API: the following record is the query input.
Recorded result, CN1CC[C@@H](Nc2cccc3c(CC(F)(F)F)c(C#CCNC(=O)c4cnn(C(C)(C)C)c4N)nn23)[C@@H](F)C1 , pIC50: 4.68

----------
SYSTEM_NAME: CYP 3A4 enzyme in human liver microsomes (Homo sapiens, UniProt P08684)
ASSAY_OVERVIEW: CYP3A4 inhibition experiment in human liver microsomes
STATED_CONDITIONS: CYP 3A4M IC50, human liver microsomes, midazolam as substrate
Experimental: The inhibitory effects of the test compounds on CYP 3A4T (with testosterone as substrate) and 3A4M (with midazolam as substrate) in human liver microsomes were evaluated in vitro to assess the medication safety of the compounds. […] The system was pre-incubated at 37°C for 5 min, and then 15 µL of 8 mM NADPH solution preheated at 37°C for 5-10 min to start the reaction. […] 80 µL of the supernatant was taken, added to 120 µL of ultrapure water, shaken evenly, and then detected by LC-MS/MS. […]
QUANTITY_NAME: IC50 (µM)
Numbers only, in µM.

Would you please look over these solved cases?
COMPOUND	OBSERVED
CN1CC[C@@H](Nc2cccc3c(CC(F)(F)F)c(C#CCNC(=O)c4cnn(C56CC(C5)C6)c4N)nn23)[C@@H](F)C1	12.9
CN1CC[C@@H](Nc2cccc3c(CC(F)(F)F)c(C#CCNC(=O)c4cnn5c4CCCC5)nn23)[C@@H](F)C1	17.4
CN1CC[C@@H](Nc2cccc3c(CC(F)(F)F)c(C#CCNC(=O)c4cnn5c4CC(C)(C)C5)nn23)[C@@H](F)C1	9.7
CN1CC[C@@H](Nc2cccc3c(CC(F)(F)F)c(C#CCNC(=O)c4cnn(C(C)(C)C)c4)nn23)[C@@H](F)C1	26.3
CC(n1ncc(C(=O)NCC#Cc2nn3c(N[C@@H]4CCN(C)C[C@@H]4F)cccc3c2CC(F)(F)F)c1N)C(F)(F)F (single isomer, unassigned) [Compound 355B]	12.5

For every item in the list below, what is its measured IC50?
1. CCn1ncc(C(=O)NCC#Cc2nn3c(N[C@@H]4CCN(C)C[C@@H]4F)cccc3c2CC(F)(F)F)c1N
2. CCn1ccc(C(=O)NCC#Cc2nn3c(N[C@@H]4CCN(C)C[C@@H]4F)cccc3c2CC(F)(F)F)c1
3. CCC(C)(C)n1ncc(C(=O)NCC#Cc2nn3c(N[C@@H]4CCN(C)C[C@@H]4F)cccc3c2CC(F)(F)F)c1N
4. Cc1cc(C(=O)NCC#Cc2nn3c(N[C@@H]4CCN(C)C[C@@H]4F)cccc3c2CC(F)(F)F)co1

Response:
1: 15.6; 2: 12.4; 3: 18.1; 4: 14.7

Recorded result, CC(C)N1CC[C@@H](Nc2cccc3c(CC(F)(F)F)c(C#CCNC(=O)c4cnn(C(C)(C)C)c4N)nn23)[C@@H](F)C1 , IC50: 15.6
